In this section, each of the molecules is paired with its reported 293T-LentiX WEE1-ePL Degradation 4 hr (Ymin).
TARGET: WEE1 (Homo sapiens, UniProt P30291+Q96SW2)
Construct: C-terminal ePL-tagged (DiscoverX, Fremont, CA) full-length WEE1 expression construct; expressed in transfected cells; host or cells: LentiX-HEK293T (Invitrogen), lentiviral transduction; co-expressing GSPT1-GN (G576N, lacking the first 158 amino acids)
PROTOCOL_TEXT: WEE1-ePL degradation assay (LentiX-WEE1-ePL-GSPT1-ND cells, InCELL Hunter luminescence, 4 h)
Type: cell-based
PARTICULARS: 293T-LentiX WEE1-ePL cells, lower limit of the fit (Ymin=0 luciferase inhibitor, Ymax DMSO control)
QUANTITY_MEASURED: 293T-LentiX WEE1-ePL Degradation 4 hr (Ymin)

>>> print(df.to_string())
                                    molecule  observed_result
 0  C[C@@H]1CN(Cc2cc(F)c3nc([C@H]4CCOC4)ccc3c2)C[C@H]1Oc1ccc2c(c1)CN([C@H]1CCC(=O)NC1=O)C2=O            26.61
 1  C[C@@H]1CN(Cc2cc(F)c3nc(C4CCOCC4)ccc3c2)C[C@H]1Oc1ccc2c(c1)CN(C1CCC(=O)NC1=O)C2=O (stereo partly shown)            27.42
 2  O=C1CC[C@H](N2Cc3cc(O[C@@H]4CN(Cc5ccc6nc([C@@H]7CCOC7)ccc6c5)CC4(F)F)ccc3C2=O)C(=O)N1            30.03
 3  CNC1CCN(c2ccc3cc(CN4CC[C@H](Oc5ccc6c(c5)CN(C5CCC(=O)NC5=O)C6=O)C4)ccc3n2)CC1 (stereo partly shown)            38.12
 4  C[C@H]1c2cc(O[C@H]3CCN(Cc4ccc5nc(N6CCOCC6)ncc5c4)C3)ccc2C(=O)N1[C@H]1CCC(=O)NC1=O            37.95
 5  O=C1CC[C@@H](N2Cc3cc(O[C@H]4CCN(Cc5ccc6nc(N7CCOCC7)ncc6c5)C4)ccc3C2=O)C(=O)N1            31.07
 6  Cc1nc(C)c(CN2CC[C@@H](Oc3ccc4c(c3)CN(C3CCC(=O)NC3=O)C4=O)C2)s1 (stereo partly shown)             94.2
 7  O=C1CC[C@H](N2Cc3cc(O[C@@H]4CN(Cc5ccc6nc([C@H]7CCOC7)ccc6c5)CC4(F)F)ccc3C2=O)C(=O)N1            28.37
 8  CO[C@@H]1CCCC[C@H]1c1ccc2cc(CN3CC[C@H](Oc4ccc5c(c4)CN(C4CCC(=O)NC4=O)C5=O)C3)ccc2n1 (stereo partly shown)            32.43
 9  O=C1CCC(N2Cc3cc(O[C@@H]4CN(Cc5ccc6nc([C@H]7CCOC7)ccc6c5)C[C@H]4F)ccc3C2=O)C(=O)N1 (stereo partly shown)            34.71
10  COC[C@@H]1CN(Cc2ccc3nc([C@H]4CCOC(C)(C)C4)ccc3c2)C[C@H]1Oc1ccc2c(c1)CN([C@H]1CCC(=O)NC1=O)C2=O            25.45
11  N#Cc1ccc2cc(CN3CC[C@H](Oc4ccc5c(c4)CN([C@H]4CCC(=O)NC4=O)C5=O)C3)ccc2n1            28.06
12  C[C@@H]1c2cc(O[C@H]3CCN(Cc4ccc5nc(C6CCOCC6)ccc5c4)C3)ccc2C(=O)N1[C@H]1CCC(=O)NC1=O            42.32
13  COC[C@@H]1CCC[C@@H]1c1ccc2cc(CN3CC[C@H](Oc4ccc5c(c4)CN(C4CCC(=O)NC4=O)C5=O)C3)ccc2n1 (stereo partly shown)            26.36
14  CO[C@@H]1CCC[C@H]1c1ccc2cc(CN3CC[C@H](Oc4ccc5c(c4)CN(C4CCC(=O)NC4=O)C5=O)C3)ccc2n1 (stereo partly shown)            37.17
15  COC[C@@H]1CN(Cc2ccc3nc(N4CCOCC4)ncc3c2)C[C@H]1Oc1ccc2c(c1)CN([C@H]1CCC(=O)NC1=O)C2=O            25.61
16  CC(=O)N1CCC(c2ccc3cc(CN4CC[C@H](Oc5ccc6c(c5)CN([C@H]5CCC(=O)NC5=O)C6=O)C4)ccc3n2)CC1            36.62
17  COC[C@@H]1CN(Cc2ccc3nc(C4CCN(C(C)=O)CC4)ncc3c2)C[C@H]1Oc1ccc2c(c1)CN([C@H]1CCC(=O)NC1=O)C2=O            26.93
18  O=C1CC[C@H](N2Cc3cc(O[C@H]4CCN(Cc5cc(C(F)(F)F)c6nc(C7CCOCC7)ccc6c5)C4)ccc3C2=O)C(=O)N1            42.83
